target: T1, Human PD-1-His protein (Cat. #10377H08H, Sino Biological) (human, UniProt Q15116 25-167); test: SPR (Biacore), antibody captured on Protein A chip, PD-1 in flow
T1 construct: Bought protein; also called hPD-1-His; hu PD-1-his; not shown: His tag of the bought protein
T1 sequence (Q15116 25-167 limits assumed): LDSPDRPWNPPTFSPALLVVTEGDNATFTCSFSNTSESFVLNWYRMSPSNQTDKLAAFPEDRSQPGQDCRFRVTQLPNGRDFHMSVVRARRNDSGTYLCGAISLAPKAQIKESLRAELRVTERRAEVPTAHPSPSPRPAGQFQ
Quick rule for you: Kd under 3 nM gets YES, anything else gets NO.

binder	assigned label
Hu33-1.IgG4AA (antibody, V domains shown, Full-length IgG4-AA, kappa) VH: EVQLVESGGGLVQPGGSLRLSCAASGFTFSSYAMSWVRQAPGKGLEWVATISGGGVDTYYQDNVQGRFTISRDNAKNSLYLQMNSLRAEDTAVYYCARPYGHGYFDVWGQGTTVTVSS VL: DIQMTQSPSSLSASVGDRVTITCRASQDINNFLNWYQQKPGKAPKLLIYYTSSLHSGVPSRFSGSGSGTDFTLTISSLQPEDFATYYCQQGNTLPWTFGGGTKVEIKR	NO

Does this binder meet the criterion Kd < 3 nM? Hu32a-85.IgG4AA (antibody, V domains shown, Full-length IgG4-AA, kappa) VH: EVQLVQSGAEVKKPGSSVKVSCKASDFTFTDYEIHWVKQAPGHGLEWIGLFDPETGGIVYNQKFKGKATLTADKSTSTAYMEFSSLRSEDTAVYYCTREGYNRDWYFDVWGQGTTVTVSS VL: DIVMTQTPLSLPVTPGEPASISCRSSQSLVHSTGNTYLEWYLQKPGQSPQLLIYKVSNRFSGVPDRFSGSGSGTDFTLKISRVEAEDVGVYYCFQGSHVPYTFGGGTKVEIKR NO

Does this binder meet the criterion Kd < 3 nM? Hu23-10.IgG4AA (antibody, V domains shown, Full-length IgG4-AA, kappa; also called Hu23LCDR1 (N28L)) VH: EVQLVQSGAEVKKPGSSVKVSCKASGGTFSDYEMHWVRQAPGQGLEWMGLIDPETGGTVYNQKFKDRVTITADKSTSTAYMELSSLRSEDTAVYYCARERFSYYGSTSDWYFDVWGQGTTVTVSS VL: DIVMTQTPLSLPVTPGEPASISCRSSQSLVHSLGNTYLEWYLQKPGQSPQLLIYKVSNRFSGVPDRFSGSGSGTDFTLKISRVEAEDVGVYYCFQGSHVPYTFGGGTKVEIKR YES

Does this binder meet the criterion Kd < 3 nM? murine antibody M23 (antibody, V domains shown) VH: QVQLQQSGAELVRPGASVTLSCKASGYTFTDYEMHWVKQTPIHGLEWIGLIDPETGGTVYNQKFKDKTILTADKSSSTAYMEFRSLTSEDSAVYHCTRERFSYYGSTSDWYFDVWGTGTTVTVSS VL: DGLMTQTPLSLPVSLGDHASISCRSSQSLVHSNGNTYLEWYLQKPGQSPKLLIYKVSNRFSGVPDRFSGSGSGTDFTLKISRVEAEDLGIYYCFQGSHVPYTFGGGTKLEIK YES

Does this binder meet the criterion Kd < 3 nM? Hu23-12.IgG4AA (antibody, V domains shown, Full-length IgG4-AA, kappa; also called Hu23LCDR1 (N28D)) VH: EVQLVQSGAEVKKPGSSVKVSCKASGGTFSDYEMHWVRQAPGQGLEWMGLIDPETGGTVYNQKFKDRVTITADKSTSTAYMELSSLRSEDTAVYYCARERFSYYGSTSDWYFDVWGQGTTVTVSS VL: DIVMTQTPLSLPVTPGEPASISCRSSQSLVHSDGNTYLEWYLQKPGQSPQLLIYKVSNRFSGVPDRFSGSGSGTDFTLKISRVEAEDVGVYYCFQGSHVPYTFGGGTKVEIKR YES
